Biological target: hERG (KCNH2) (Homo sapiens)
Sequence (Q12809 whole entry): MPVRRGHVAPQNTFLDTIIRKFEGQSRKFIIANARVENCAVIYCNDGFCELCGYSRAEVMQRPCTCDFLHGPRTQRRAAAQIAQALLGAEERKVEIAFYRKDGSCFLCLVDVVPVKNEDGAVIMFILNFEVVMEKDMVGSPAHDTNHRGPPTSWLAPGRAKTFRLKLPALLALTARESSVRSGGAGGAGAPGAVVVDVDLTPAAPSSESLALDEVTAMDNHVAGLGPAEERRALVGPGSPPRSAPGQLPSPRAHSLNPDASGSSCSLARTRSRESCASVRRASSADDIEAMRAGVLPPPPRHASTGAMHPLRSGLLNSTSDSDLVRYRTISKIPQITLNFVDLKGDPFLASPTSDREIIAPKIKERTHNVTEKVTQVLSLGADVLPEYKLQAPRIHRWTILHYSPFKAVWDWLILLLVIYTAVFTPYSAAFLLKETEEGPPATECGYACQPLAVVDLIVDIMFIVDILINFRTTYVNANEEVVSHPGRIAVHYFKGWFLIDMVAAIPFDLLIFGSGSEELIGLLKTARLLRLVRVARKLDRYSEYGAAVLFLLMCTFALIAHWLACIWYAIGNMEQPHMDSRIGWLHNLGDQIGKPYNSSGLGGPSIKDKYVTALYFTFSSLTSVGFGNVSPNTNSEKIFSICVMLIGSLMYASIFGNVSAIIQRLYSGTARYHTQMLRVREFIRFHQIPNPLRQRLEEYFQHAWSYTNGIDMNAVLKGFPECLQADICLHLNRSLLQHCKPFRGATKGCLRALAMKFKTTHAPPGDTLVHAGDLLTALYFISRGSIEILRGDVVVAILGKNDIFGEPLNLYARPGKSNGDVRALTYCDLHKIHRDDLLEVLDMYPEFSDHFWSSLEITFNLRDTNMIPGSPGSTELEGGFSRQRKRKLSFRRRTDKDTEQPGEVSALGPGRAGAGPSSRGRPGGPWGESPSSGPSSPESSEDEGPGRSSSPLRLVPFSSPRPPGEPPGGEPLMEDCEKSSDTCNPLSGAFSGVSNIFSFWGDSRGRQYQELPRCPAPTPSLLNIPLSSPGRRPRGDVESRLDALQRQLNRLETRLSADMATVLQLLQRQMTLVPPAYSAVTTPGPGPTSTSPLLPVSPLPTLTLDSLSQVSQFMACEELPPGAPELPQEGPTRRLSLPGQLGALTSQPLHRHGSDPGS
Test: Effects of 10 uM aliskiren hemifumarate on current through cloned hERG channel expressed in human embryonic kidney cell
Assay type: cell-based
Set-up: conc 10 uM, dose level Low
Conditions: HEK293 cells that express cloned hERG channel, read-out: Inhibitory activity

compound	inhibition at 10 µM / %
COCCCOc1cc(C[C@@H](C[C@H](N)[C@@H](O)C[C@H](C(=O)NCC(C)(C)C(N)=O)C(C)C)C(C)C)ccc1OC.COCCCOc1cc(C[C@@H](C[C@H](N)[C@@H](O)C[C@H](C(=O)NCC(C)(C)C(N)=O)C(C)C)C(C)C)ccc1OC.O=C(O)/C=C/C(=O)O [ALISKIREN FUMARATE]	1.4
